Numbers sourced from ChEMBL document CHEMBL1201862.

- Test system: A549
- test_details: NCI tumour cell line growth inhibition, 48 h
Active and inactive are the calls of the source. Rule as the data show it: active = GI50 up to about 1.1 µM and inactive = higher.
Respond only with the outcome that fits, drawn from True = active, False = inactive

OC1C[C@H](c2ccccc2)C2(C(O)c3ccccc3C2O)[C@@H](c2ccccc2)C1 (stereo not given in full) | False
O=C(N/C(=C\c1ccccc1)c1nc2ccccc2c(=O)o1)c1ccccc1 | False
COc1ccc2cccc(C(=O)c3ccc(C)c4c3CCC4)c2c1 | False
O=C(NN1C(=O)CSC1c1ccc(Cl)c(Cl)c1)c1ccncc1 (stereo not given) | False
O=C(Cn1cc(F)c(=O)[nH]c1=O)C12CC3CC(CC(C3)C1)C2 | False
O=C(Oc1c(Br)cc(Br)cc1C(=O)Oc1ccccc1)C(=O)Oc1c(Br)cc(Br)cc1C(=O)Oc1ccccc1 | False

Hey, what did the test say about COc1ccc(-c2nc(-c3cc4ccccc4oc3=O)cs2)cc1 ?
False

Hey, what did the test say about CCOC(=O)C(=O)Nc1ccccc1C(C)C ?
False

Hey, what did the test say about COc1cc(/C=C2\CCC(C)C3=C(c4cc(OC)c(OC)c(OC)c4)C(C#N)=C(N)OC32)cc(OC)c1OC (stereo not given) ?
False

Hey, what did the test say about O=C(/C=C/c1ccccc1)CCC1C(=O)NC(=S)NC1=O ?
False

Hey, what did the test say about CCCCCC(/C=N/Nc1ccccc1)C(O)(C(F)(F)F)C(F)(F)F (stereo not given) ?
False

Hey, what did the test say about COc1ccc(/C=C2\C[C@H]3[C@@H]4CC=C5C[C@@H](OC(C)=O)CC[C@]5(C)[C@H]4CC[C@]3(C)C2=O)cc1OC ?
False

Hey, what did the test say about CC[C@H]1C=CCC[C@@]2(C[C@@H]3CC[C@@H]4[C@H](C(=O)OCCCCCCCCCCCCCCCC(=O)O)[C@]5(CCC[C@@H](C)O5)NC(=[N+]34)N2)O1 ?
True

Hey, what did the test say about CC(=O)N1N=C(N)CC1=O ?
False

---

Assign GI50 to each entry below.
- Test system: SNB-19
- test_details: NCI tumour cell line growth inhibition, 48 h
Activity calls are given as the source filed them. No stated cut-off is given here; in the data, active = GI50 up to about 1.1 µM and inactive = higher.

COc1ccc2c3c1O[C@H]1C(O)CCC4(O)[C@@H](C2)NCC[C@]314 (stereo partly specified) | > 100 µM (inactive)
CC(=S)NNC(=O)c1ccncc1 | > 100 µM (inactive)

For each entry beneath this line, provide reported GI50.
1. CCOC(=O)c1c(Br)c(-c2ccc([N+](=O)[O-])cc2)c(Br)n1C
2. O=CC(=C(I)I)c1ccccc1
3. CC1COC(C)(C)P(=O)(c2ccccc2)C1 (stereo unspecified)

1. > 10 µM (inactive)
2. 7.78 µM (inactive)
3. > 100 µM (inactive)

Give the measured GI50 of CCOC(=O)c1csc(-c2nc(CCNC(=O)c3ccccc3)sc2Cl)n1 .
> 100 µM (inactive)

---

Assign GI50 to each entry below.
- System: KM-20L2
- test_details: NCI tumour cell line growth inhibition, 48 h
Activity calls are given as the source filed them. No stated cut-off is given here; in the data, active = GI50 up to about 1.1 µM and inactive = higher.

CCOC(=O)/C(=C\c1ccc(OCc2ccccc2)c(OC)c1)C(=O)c1ccccc1 | 19.5 µM (inactive)
CC1=NN(C(=O)c2ccc(Cl)cc2)C(=O)/C1=C/c1cccc([N+](=O)[O-])c1 | > 100 µM (inactive)
CC(=O)Nc1ccc(-c2nnc(SCC(=O)Nc3ccccc3)o2)cc1 | > 100 µM (inactive)

For each entry beneath this line, provide reported GI50.
1. COc1ccc2c(c1)[n+]([O-])c(C(=O)CC(=O)C(=O)Nc1cccc(C)c1C)c(C)[n+]2[O-]
2. CC(=O)N[C@@H]1C(O)CN2C(=O)C(=O)O[C@H](C(O)CO)[C@@H]12 (some centres not stated)
3. COc1ccc(S(=O)(=O)c2ccccc2[N+](=O)[O-])cc1
4. CC1=CP(=O)(OC(C)C)CC(C)=C1Cl (configuration not stated)
5. COc1ccc2cccc(C(=O)c3ccc(C)c4c3CCC4)c2c1
6. Cc1ccc(/C=C/C(=O)c2ccc([N+](=O)[O-])cc2)cc1

["> 100 µM (inactive)", "> 100 µM (inactive)", "> 100 µM (inactive)", "> 100 µM (inactive)", "35.9 µM (inactive)", "> 100 µM (inactive)"]

For each entry beneath this line, provide reported GI50.
1. [O-][Cl+3]([O-])([O-])O.c1ccc(/N=c2\nc(N3CCOCC3)ss2)cc1
2. CN1C(=N\S(=O)(=O)c2ccc(Cl)cc2)/C(=N/N=P(c2ccccc2)(c2ccccc2)c2ccccc2)c2ccccc21
3. Cc1ccc(/C=N\NC2c3cc(Cl)ccc3Nc3nc(O)nc(C)c32)cc1 (configuration not stated)

1. 16.5 µM (inactive)
2. > 100 µM (inactive)
3. > 100 µM (inactive)
